tested on: breast cancer cell line MCF-7; test: Growth inhibition of cancer cell line, resazurin assay; format: cell-based, Human; details: Homo sapiens, MCF7; Table 2, resazurin assay
measureName: GI50 (µM)
Give bare numbers, in µM.

compound: Cc1cccc2c1C1=NCCCN1C(=N)S2 [Compound 13m]
measureName: GI50
resultUnits: µM
measValue: 179

Below are some compounds; for each one, tell me its GI50.
1. N=C1Sc2ccccc2C2=NCCN12 [Compound 13b]
2. N=C1Sc2c(F)cccc2C2=NCCN12 [Compound 13i]

**Result**
[213, 16]

====

target: HDAC6 (Homo sapiens, UniProt Q9UBN7); experiment: HDAC6 colorimetric assay, substrate Boc-Lys(Ac)-AMC; assay type: biochemical
measureName: pIC50
Give bare numbers, as −log10 of the molar value.

Form: molecule = N=C1Sc2ccccc2C2=NCCCN12 [Compound 13a] ; pIC50 = 5.17

====

biological target: UniProtKB Q9BY41; experiment: HDAC8 colorimetric assay, substrate Boc-Lys(TFA)-AMC; conditions: IC50 HDAC8, Table 1
Sequence (Q9BY41 whole entry): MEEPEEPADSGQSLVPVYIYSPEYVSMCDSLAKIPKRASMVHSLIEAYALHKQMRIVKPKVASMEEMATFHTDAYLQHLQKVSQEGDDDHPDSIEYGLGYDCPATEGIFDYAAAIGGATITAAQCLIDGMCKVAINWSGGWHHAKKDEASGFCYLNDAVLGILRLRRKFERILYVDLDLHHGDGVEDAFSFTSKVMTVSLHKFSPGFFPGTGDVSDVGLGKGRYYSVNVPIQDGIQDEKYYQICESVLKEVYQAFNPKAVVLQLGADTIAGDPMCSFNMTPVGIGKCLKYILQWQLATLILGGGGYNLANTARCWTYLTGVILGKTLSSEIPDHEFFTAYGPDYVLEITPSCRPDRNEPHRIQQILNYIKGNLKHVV
measureName: pIC50
Answers are plain numbers, as −log10 of the molar value.

molecule: N=C1Sc2cc(F)ccc2C2=NCCCN12 [Compound 13f]
pIC50: 8.39
//
molecule: Cc1ccc2c(c1)SC(=N)N1CCCN=C21 [Compound 13k]
pIC50: 8.27

Below are some molecules; for each one, tell me its pIC50.
1. N=C1Sc2ccc(Cl)cc2C2=NCCN12 [Compound 13c]
2. N=C1Sc2cc(Br)ccc2C2=NCCCN12 [Compound 13g]
3. N=C1Sc2ccc(Cl)cc2C2=NCCCN12 [Compound 13e]
4. Cc1cccc2c1C1=NCCCN1C(=N)S2 [Compound 13m]
5. N=C1Sc2c(F)cccc2C2=NCCCN12 [Compound 13h]
6. N=C1Sc2c(F)cccc2C2=NCCN12 [Compound 13i]
7. N=C1Sc2ccccc2C2=NCCN12 [Compound 13b]

**Result**
6.74
8.54
8.23
8.37
7.77
5.04
5.36

Below are some molecules; for each one, tell me its pIC50.
1. N=C1Sc2ccc(F)cc2C2=NCCCN12 [Compound 13l]
2. N=C1Sc2cccc(Br)c2C2=NCCCN12 [Compound 13j]
3. CN(C)c1ccc2c(c1)SC(=N)N1CCCN=C21 [Compound 13d]

**Result**
1: 8.22; 2: 8.20; 3: 7.14

====

Would you mind telling me the reported pIC50 of each entry?
molecular target: HDAC1 (Homo sapiens, UniProt Q13547); test: HDAC1 colorimetric assay, substrate Boc-Lys(Ac)-AMC; settings: IC50 for HDAC1, FIG. 3; 50 μM Boc-Lys(Ac)-AMC
Sequence (Q13547 whole entry): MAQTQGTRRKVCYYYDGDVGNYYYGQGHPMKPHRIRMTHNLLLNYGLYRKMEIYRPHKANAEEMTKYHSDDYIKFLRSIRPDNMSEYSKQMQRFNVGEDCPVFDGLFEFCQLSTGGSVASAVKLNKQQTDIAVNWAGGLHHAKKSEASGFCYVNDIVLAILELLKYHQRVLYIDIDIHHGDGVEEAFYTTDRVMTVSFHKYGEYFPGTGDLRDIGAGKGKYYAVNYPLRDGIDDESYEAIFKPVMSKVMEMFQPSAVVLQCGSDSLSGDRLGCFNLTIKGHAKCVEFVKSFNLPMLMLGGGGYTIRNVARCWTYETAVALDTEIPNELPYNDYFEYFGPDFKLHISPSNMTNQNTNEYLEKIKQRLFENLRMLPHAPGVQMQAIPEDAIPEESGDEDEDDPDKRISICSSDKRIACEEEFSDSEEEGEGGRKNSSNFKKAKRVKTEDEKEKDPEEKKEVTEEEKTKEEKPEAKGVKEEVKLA
Give bare numbers, as −log10 of the molar value.

Take a look at these entries with their results.
compound: N=C1Sc2ccccc2C2=NCCCN12 [Compound P2742, reference compound]
measureName: pIC50
measValue: 5.52

compound: CN(C)c1ccc2c(c1)SC(=N)N1CCCN=C21 [Compound 13d]
measureName: pIC50
measValue: 4.47

compound: N=C1Sc2ccc(Cl)cc2C2=NCCN12 [Compound 13c]
measureName: pIC50
measValue: 4.70

Form: compound = N=C1Sc2ccc(Cl)cc2C2=NCCCN12 [Compound 13e] ; pIC50 = 5.10

====

target: HDAC2 (Homo sapiens); assay: HDAC2 colorimetric assay, substrate Boc-Lys(Ac)-AMC; format: biochemical; settings: Table 1
Sequence (Q92769 whole entry): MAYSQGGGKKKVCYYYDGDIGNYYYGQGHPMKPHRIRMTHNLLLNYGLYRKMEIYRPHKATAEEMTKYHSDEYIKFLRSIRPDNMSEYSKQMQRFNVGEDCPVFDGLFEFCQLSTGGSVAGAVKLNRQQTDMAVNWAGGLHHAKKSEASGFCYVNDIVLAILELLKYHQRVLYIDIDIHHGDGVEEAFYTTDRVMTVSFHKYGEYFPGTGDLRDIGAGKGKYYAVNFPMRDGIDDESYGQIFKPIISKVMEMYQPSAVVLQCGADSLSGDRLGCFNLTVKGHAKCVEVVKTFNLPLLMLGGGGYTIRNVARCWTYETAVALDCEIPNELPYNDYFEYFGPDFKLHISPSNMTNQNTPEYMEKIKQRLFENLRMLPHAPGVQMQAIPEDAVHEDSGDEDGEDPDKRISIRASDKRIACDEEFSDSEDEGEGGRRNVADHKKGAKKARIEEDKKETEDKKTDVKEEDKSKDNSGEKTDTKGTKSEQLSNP
Would you mind telling me the reported IC50 of each entry?

Take a look at these entries with their results.
compound: Cc1ccc2c(c1)SC(=N)N1CCCN=C21 [Compound 13k]
measureName: IC50
measValue: > 50 µM

compound: N=C1Sc2ccc(Cl)cc2C2=NCCN12 [Compound 13c]
measureName: IC50
measValue: > 50 µM

compound: N=C1Sc2cc(F)ccc2C2=NCCCN12 [Compound 13f]
measureName: IC50
measValue: > 50 µM

compound: N=C1Sc2cc(Br)ccc2C2=NCCCN12 [Compound 13g]
measureName: IC50
measValue: > 50 µM

compound: N=C1Sc2ccccc2C2=NCCN12 [Compound 13b]
measureName: IC50
measValue: > 50 µM

Below are some compounds; for each one, tell me its IC50.
1. CN(C)c1ccc2c(c1)SC(=N)N1CCCN=C21 [Compound 13d]
2. N=C1Sc2ccc(Cl)cc2C2=NCCCN12 [Compound 13e]
3. Cc1cccc2c1C1=NCCCN1C(=N)S2 [Compound 13m]
4. N=C1Sc2c(F)cccc2C2=NCCCN12 [Compound 13h]
5. N=C1Sc2c(F)cccc2C2=NCCN12 [Compound 13i]
6. N=C1Sc2cccc(Br)c2C2=NCCCN12 [Compound 13j]
7. N=C1Sc2ccc(F)cc2C2=NCCCN12 [Compound 13l]

**Result**
1: > 50 µM; 2: > 50 µM; 3: > 50 µM; 4: > 50 µM; 5: > 50 µM; 6: 16 µM; 7: 30 µM

====

molecular target: HDAC5 (Homo sapiens); experiment: HDAC5 colorimetric assay, substrate Boc-Lys(TFA)-AMC; details: read-out: IC50 HDAC5; Table 1
Sequence (Q9UQL6 whole entry): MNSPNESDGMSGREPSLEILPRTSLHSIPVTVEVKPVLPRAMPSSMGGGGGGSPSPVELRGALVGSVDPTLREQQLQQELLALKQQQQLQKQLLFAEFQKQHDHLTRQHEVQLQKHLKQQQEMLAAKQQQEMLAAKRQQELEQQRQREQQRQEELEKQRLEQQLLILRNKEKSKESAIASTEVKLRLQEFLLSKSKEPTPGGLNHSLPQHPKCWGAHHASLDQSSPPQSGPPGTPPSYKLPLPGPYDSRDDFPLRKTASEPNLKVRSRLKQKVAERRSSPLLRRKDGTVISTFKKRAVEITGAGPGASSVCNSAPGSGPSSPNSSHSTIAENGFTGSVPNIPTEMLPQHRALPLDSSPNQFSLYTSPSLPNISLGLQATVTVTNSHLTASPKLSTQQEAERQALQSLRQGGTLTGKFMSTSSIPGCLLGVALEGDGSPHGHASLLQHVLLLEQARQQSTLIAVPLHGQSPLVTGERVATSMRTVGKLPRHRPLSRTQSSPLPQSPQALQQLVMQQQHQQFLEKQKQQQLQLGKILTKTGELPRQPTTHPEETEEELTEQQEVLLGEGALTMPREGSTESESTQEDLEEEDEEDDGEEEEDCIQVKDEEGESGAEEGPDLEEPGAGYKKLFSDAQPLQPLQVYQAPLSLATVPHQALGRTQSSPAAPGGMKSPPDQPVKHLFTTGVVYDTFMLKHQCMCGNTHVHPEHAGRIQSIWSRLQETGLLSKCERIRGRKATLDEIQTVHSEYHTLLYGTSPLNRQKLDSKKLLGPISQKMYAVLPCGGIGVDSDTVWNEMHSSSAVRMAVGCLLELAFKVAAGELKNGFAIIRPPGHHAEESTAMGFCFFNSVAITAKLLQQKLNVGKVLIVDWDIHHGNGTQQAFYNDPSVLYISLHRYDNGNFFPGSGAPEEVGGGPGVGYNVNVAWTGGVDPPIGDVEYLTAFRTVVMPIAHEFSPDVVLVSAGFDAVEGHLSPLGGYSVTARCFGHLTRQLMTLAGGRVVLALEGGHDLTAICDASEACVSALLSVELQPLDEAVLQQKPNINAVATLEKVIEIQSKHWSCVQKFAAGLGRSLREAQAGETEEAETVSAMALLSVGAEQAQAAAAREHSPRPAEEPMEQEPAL
measureName: pIC50
Give bare numbers, as −log10 of the molar value.

Form: molecule = N=C1Sc2ccccc2C2=NCCCN12 [Compound 13a] ; pIC50 = 6.96

====

molecular target: HDAC7 (Homo sapiens, UniProt Q8WUI4); assay: HDAC7 colorimetric assay, substrate Boc-Lys(TFA)-AMC
Sequence (Q8WUI4 whole entry): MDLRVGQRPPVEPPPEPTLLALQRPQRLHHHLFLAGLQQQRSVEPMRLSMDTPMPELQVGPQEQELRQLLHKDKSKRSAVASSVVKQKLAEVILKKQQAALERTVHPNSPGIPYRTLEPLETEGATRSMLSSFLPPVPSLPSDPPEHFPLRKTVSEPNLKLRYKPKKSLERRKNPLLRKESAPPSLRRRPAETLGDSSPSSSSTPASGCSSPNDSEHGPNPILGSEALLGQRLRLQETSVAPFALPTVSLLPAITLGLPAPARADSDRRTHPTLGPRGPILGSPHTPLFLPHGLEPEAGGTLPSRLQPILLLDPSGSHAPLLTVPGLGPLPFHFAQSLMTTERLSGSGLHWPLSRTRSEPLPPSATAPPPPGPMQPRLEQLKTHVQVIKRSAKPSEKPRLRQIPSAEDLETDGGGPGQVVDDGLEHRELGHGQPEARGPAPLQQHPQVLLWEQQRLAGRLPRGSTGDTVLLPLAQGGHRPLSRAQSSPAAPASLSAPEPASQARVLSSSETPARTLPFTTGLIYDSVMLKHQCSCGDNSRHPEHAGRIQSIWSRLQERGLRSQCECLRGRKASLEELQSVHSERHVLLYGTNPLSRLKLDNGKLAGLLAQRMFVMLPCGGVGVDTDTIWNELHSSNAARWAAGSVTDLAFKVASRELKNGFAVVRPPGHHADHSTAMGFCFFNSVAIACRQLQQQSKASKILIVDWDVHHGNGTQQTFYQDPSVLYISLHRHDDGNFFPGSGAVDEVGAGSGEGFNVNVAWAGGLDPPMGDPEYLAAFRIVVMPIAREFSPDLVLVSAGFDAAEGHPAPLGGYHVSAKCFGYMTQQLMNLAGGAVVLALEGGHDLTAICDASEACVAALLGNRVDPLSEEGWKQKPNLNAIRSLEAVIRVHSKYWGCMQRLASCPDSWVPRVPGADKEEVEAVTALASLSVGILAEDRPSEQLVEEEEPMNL
measureName: IC50 (nM)
Answers are plain numbers, in nM.

Form: molecule = N=C1Sc2ccccc2C2=NCCCN12 [Compound P2742, reference compound] ; IC50 = 240

====

Would you mind telling me the reported IC50 of each entry?
Target: HDAC6 (Homo sapiens)
Sequence (Q9UBN7 1-1215): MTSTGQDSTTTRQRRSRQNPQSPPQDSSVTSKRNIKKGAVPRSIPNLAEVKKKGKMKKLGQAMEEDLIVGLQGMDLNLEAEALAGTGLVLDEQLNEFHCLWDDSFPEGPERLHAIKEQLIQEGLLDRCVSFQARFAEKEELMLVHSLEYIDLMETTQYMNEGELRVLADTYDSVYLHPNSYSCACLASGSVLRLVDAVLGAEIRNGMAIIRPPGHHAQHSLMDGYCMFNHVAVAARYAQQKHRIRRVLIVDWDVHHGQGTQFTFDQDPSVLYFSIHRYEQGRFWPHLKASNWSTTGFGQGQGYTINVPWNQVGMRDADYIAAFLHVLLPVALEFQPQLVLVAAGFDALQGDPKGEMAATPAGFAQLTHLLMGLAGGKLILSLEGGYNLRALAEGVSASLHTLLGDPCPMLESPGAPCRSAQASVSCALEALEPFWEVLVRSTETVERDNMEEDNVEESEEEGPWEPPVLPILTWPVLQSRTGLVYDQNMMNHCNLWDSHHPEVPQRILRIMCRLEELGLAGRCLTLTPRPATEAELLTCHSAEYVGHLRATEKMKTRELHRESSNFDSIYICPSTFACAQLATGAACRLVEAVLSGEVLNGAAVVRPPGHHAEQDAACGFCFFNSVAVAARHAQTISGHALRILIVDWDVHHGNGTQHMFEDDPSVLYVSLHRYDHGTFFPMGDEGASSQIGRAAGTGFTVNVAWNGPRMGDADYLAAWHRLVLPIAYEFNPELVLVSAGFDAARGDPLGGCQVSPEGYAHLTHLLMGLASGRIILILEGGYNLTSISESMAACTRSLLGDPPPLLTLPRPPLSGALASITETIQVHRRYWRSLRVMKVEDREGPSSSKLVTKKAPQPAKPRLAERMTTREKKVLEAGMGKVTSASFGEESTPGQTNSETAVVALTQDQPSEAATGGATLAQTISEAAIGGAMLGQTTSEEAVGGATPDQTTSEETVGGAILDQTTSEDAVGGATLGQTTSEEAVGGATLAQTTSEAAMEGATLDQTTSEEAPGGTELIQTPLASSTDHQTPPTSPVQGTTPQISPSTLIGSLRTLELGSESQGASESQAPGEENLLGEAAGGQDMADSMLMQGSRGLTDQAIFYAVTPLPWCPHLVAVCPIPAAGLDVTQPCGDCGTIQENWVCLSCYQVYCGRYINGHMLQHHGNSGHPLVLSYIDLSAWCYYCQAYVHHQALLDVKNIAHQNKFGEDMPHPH
Assay: HDAC6 colorimetric assay, substrate Boc-Lys(Ac)-AMC
Format: biochemical
Settings: Table 1; read-out: IC50 HDAC6

molecule: N=C1Sc2ccc(Cl)cc2C2=NCCN12 [Compound 13c]
experimentalSystem: HDAC6 (Homo sapiens)
IC50: 32000 nM
//
molecule: CN(C)c1ccc2c(c1)SC(=N)N1CCCN=C21 [Compound 13d]
experimentalSystem: HDAC6 (Homo sapiens)
IC50: 14000 nM
//
molecule: N=C1Sc2ccccc2C2=NCCN12 [Compound 13b]
experimentalSystem: HDAC6 (Homo sapiens)
IC50: > 50000 nM

Below are some molecules; for each one, tell me its IC50.
1. N=C1Sc2cc(F)ccc2C2=NCCCN12 [Compound 13f]
2. Cc1cccc2c1C1=NCCCN1C(=N)S2 [Compound 13m]
3. N=C1Sc2c(F)cccc2C2=NCCN12 [Compound 13i]
4. N=C1Sc2cc(Br)ccc2C2=NCCCN12 [Compound 13g]
5. N=C1Sc2ccc(F)cc2C2=NCCCN12 [Compound 13l]
6. N=C1Sc2c(F)cccc2C2=NCCCN12 [Compound 13h]

**Result**
9000 nM
1300 nM
> 50000 nM
2800 nM
650 nM
5200 nM

Below are some molecules; for each one, tell me its IC50.
1. N=C1Sc2ccc(Cl)cc2C2=NCCCN12 [Compound 13e]
2. N=C1Sc2cccc(Br)c2C2=NCCCN12 [Compound 13j]
3. Cc1ccc2c(c1)SC(=N)N1CCCN=C21 [Compound 13k]

**Result**
1200 nM
1400 nM
1300 nM
